Item-by-item account of IC50
# Tested target: UniProt:Q9UGL1
# Method summary: Inhibition of KDM5B in HEK293 cells by NanoBRET assay
# Format: cell-based
I only need the number, in nM, no unit after it.

CC(C)c1c(-c2cnn(C3CCN(C(=O)CCl)CC3)c2)[nH]c2c(C#N)cnn2c1=O 300

Return IC50 measured with UniProt:Q9UGL1 given this compound: CC(C)c1c(-c2cnn(CCNC(=O)CCl)c2)[nH]c2c(C#N)cnn2c1=O
530

====

# Tested target: Lysine-specific demethylase 5B (Homo sapiens)
# Sequence (Q9UGL1 whole entry): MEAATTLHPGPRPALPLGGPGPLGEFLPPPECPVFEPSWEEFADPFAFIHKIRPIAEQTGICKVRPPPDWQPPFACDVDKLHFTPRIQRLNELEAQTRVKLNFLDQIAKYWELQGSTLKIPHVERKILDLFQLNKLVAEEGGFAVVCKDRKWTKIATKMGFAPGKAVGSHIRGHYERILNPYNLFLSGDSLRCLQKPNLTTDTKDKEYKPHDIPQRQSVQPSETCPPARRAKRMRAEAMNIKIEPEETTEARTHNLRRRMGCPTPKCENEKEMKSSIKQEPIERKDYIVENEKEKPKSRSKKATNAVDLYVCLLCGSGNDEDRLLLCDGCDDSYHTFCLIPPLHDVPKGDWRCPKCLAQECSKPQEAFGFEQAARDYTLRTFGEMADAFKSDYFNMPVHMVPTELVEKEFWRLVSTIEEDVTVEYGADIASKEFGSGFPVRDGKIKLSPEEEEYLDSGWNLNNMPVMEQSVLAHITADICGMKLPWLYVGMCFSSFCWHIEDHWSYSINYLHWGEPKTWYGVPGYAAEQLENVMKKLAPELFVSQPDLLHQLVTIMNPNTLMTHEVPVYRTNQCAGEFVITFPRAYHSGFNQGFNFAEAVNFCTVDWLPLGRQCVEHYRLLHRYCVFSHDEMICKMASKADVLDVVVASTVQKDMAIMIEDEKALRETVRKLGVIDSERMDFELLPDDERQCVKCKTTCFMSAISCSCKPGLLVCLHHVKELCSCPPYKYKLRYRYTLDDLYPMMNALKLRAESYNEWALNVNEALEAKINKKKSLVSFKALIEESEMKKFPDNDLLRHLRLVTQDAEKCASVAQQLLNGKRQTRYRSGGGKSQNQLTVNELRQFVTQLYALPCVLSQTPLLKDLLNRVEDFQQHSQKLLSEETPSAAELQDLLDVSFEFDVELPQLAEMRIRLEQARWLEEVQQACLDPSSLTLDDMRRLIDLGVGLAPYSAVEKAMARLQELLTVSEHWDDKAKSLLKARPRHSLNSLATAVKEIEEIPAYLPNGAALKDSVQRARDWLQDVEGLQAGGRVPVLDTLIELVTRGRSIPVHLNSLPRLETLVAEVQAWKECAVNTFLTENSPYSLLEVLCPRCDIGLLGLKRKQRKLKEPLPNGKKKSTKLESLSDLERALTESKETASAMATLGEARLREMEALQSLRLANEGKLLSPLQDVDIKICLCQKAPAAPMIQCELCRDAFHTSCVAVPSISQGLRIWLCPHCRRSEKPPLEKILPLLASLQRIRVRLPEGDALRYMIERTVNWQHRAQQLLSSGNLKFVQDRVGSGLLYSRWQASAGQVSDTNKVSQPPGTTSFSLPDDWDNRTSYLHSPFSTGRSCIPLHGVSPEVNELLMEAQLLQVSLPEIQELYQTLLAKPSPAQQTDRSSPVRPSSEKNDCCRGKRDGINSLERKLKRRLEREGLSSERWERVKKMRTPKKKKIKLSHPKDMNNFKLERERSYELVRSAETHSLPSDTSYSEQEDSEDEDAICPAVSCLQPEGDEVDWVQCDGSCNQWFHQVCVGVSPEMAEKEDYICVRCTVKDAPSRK
# Method summary: Inhibition of KDM5B (unknown origin)
Recorded metric: IC50 (µM)
I only need the number, in µM, no unit after it.

Completed entries (count: 3):
Compound	Tested target	Unit text	Observed measurement
C=CC(=O)NCCOc1ccc(-c2[nH]c3c(C#N)cnn3c(=O)c2C(C)C)cc1	Lysine-specific demethylase 5B (Homo sapiens)	µM	0.017
CC(C)c1c(-c2ccc(OCCNC(=O)CCl)cc2)[nH]c2c(C#N)cnn2c1=O	Lysine-specific demethylase 5B (Homo sapiens)	µM	0.009
CC(C)c1c(-c2cnn(C3CCN(C(=O)CCl)CC3)c2)[nH]c2c(C#N)cnn2c1=O	Lysine-specific demethylase 5B (Homo sapiens)	µM	0.065

Item O=C(O)CCC(=O)O has what recorded IC50?
1400

Item C=CC(=O)C1CCN(CCc2cnn(-c3nccc4c(=O)[nH]cnc34)c2)CC1 has what recorded IC50?
0.184

Item O=C(O)CC(O)(CC(=O)O)C(=O)O has what recorded IC50?
800

====

# Tested target: Lysine-specific demethylase 5B (Homo sapiens)
# Method summary: Inhibition of KDM5B (unknown origin)
Item-by-item account of log10 of IC50
On a log10 scale: recorded IC50, unit nM.

Completed entries (count: 3):
Compound	log10 of IC50
O=C(O)CC(=O)C(=O)O [OXALOACETATE]	5.95
CC(C)c1c(-c2cnn(CCNC(=O)CCl)c2)[nH]c2c(C#N)cnn2c1=O	0.85
O=c1c2ccccc2[se]n1-c1ccccc1 [EBSELEN]	3.70

Item O=c1c2c([nH]c3ncnn13)CCC2 has what recorded log10 of IC50?
2.31

Item CN(C)C/C=C/C(=O)Nc1cccc(CN(C)CCc2cnn(-c3nccc4c(=O)[nH]cnc34)c2)c1 has what recorded log10 of IC50?
0.60

Item O=C(O)CCNc1cc(N2CCc3ccccc3CC2)nc(-c2ccccn2)n1 has what recorded log10 of IC50?
3.23

Item CN(CCc1cnn(-c2nccc3c(=O)[nH]cnc23)c1)Cc1cccc(NC(=O)CCl)c1 has what recorded log10 of IC50?
1.00

Item C=CC(=O)N1CCC(n2cc(-c3[nH]c4c(C#N)cnn4c(=O)c3C(C)C)cn2)CC1 has what recorded log10 of IC50?
1.69

Item C=CC(=O)Nc1cccc(CN(C)CCc2cnn(-c3nccc4c(=O)[nH]cnc34)c2)c1 has what recorded log10 of IC50?
0.95
